target: Human Viral RNA Sensor RIG-I (Homo sapiens, UniProt O95786); assay: biochemical
Sequence (O95786 whole entry): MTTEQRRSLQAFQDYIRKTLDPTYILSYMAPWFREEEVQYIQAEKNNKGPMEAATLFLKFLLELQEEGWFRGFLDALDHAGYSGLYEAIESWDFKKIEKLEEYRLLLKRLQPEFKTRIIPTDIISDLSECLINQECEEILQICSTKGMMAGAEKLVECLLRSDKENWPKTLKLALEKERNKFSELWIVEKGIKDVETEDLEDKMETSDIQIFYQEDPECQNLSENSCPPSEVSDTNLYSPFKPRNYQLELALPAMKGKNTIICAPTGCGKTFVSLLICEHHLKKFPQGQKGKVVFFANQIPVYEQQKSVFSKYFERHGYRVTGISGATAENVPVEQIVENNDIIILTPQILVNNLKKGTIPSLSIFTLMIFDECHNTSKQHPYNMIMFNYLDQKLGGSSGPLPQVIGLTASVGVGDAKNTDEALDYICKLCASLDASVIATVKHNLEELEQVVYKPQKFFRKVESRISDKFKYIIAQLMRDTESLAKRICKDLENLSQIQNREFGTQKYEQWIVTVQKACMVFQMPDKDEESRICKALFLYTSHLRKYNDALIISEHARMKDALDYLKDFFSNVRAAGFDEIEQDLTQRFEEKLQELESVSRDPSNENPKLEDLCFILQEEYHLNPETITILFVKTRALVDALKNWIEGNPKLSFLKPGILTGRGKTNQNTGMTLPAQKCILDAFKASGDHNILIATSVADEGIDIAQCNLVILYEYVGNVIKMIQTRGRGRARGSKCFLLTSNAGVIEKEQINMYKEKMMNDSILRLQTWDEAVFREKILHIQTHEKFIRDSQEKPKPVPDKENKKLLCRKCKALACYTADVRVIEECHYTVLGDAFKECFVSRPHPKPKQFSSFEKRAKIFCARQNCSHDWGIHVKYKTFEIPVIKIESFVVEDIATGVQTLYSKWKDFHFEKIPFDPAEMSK
Measurement kind: EC50 (µM)
Give bare numbers, in µM.

Qu. What measured EC50 goes with `CCN(CC)CCOc1ccc2c(c1)C(=O)c1cc(OCCN(CC)CC)ccc1-2` ?
Ans. 500
